# test.target: MyD88^TIR (Homo sapiens, UniProt Q99836)
# Construct: MyD88 (residues 148–296); 6xHis; made in house; host or cells: E. coli BL21 (DE3)
# Sequence (Q99836 148-296): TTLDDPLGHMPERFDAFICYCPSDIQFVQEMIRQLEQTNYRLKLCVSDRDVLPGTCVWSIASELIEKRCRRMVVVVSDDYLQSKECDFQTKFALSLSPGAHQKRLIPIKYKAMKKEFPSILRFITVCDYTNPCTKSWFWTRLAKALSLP
# assay.remarks: T‐Surf phage library (P8 and P3) selection against MyD88^TIR, four rounds, NGS read counts
# Assay type: binding
# experimental.setup: P3_MyD88: rank by count before grouping
measured.endpoint: Rank (before)

Solved cases (3 shown):
- sequence.content: "EWIREQLRPALEKAGKL"
  Rank (before): 649
- sequence.content: "DTKLKKGESIAPELVL"
  Rank (before): 972
- sequence.content: "LKVEGWRRALEKAGNL"
  Rank (before): 2470

Could you please provide reported Rank (before) for DSHESEIIKEIVDTIV ? Thanks!
967

Please list Rank (before) recorded for the sequence LKWAIRIFGANCVMR
1073

Please indicate Rank (before) recorded for YSFTGQLHLYLIHRGV
1433

----------
# test.target: MyD88^TIR (Homo sapiens, UniProt Q99836)
# Construct: MyD88 (residues 148–296); 6xHis; made in house; host or cells: E. coli BL21 (DE3)
# assay.remarks: T‐Surf phage library (P8 and P3) selection against MyD88^TIR, four rounds, NGS read counts
# Assay type: binding
# experimental.setup: P3 library, 4R selection against MyD88, rank before grouping
# Experimental: T‐Surf libraries were screened against the immobilized TIR domains of two major human TLR adaptor proteins, MAL^TIR and MyD88^TIR, allowing cross‐species selection of TIR‐binding motifs with 190 946 TIR‐derived peptides in a single binding assay (Scheme 1). Enriched phage pools from the fourth round of selection were analyzed using NGS after barcoding the peptide‐coding regions of the phage pools. […]
measured.endpoint: P3_MyD88 Rank (before)
# print the numeric value only

Item EWILSKLSQHILKREK : provide P3_MyD88 Rank (before)
2128

Provide one value: measured P3_MyD88 Rank (before) of SCFCEELCCVLELSKK
2938

Give the value of P3_MyD88 Rank (before) reported for the following: WFWDKQKYTLPHRYEP
1418

Return the recorded P3_MyD88 Rank (before) value; entry: HLLREFDKKLITAFQD
2769

Give me measured P3_MyD88 Rank (before), please, for this sequence: SSFREGVWRLPEMSTK
3149

Let me know recorded P3_MyD88 Rank (before) for SSFRERLWRLLELIKK , thanks.
3246

Indicate the recorded P3_MyD88 Rank (before) value for this sequence: SSFREGLSRLPELSKK
3207

Give reported P3_MyD88 Rank (before) value for SSFREGLWRLMALIKK
3188

----------
# test.target: MyD88^TIR (Homo sapiens, UniProt Q99836)
# Construct: MyD88 (residues 148–296); 6xHis; made in house; host or cells: E. coli BL21 (DE3)
# assay.remarks: T‐Surf phage library (P8 and P3) selection against MyD88^TIR, four rounds, NGS read counts
# Format: binding
# experimental.setup: P3 library, selection against MyD88, rank by count before grouping
measured.endpoint: P3_MyD88 Rank (before)

- sequence.content: "RFWESQRYMKPNVSHT"
  observed.value: 2552

Read the entry SENYVTSPCAVDELVP and write its reported P3_MyD88 Rank (before).
2957

Please look at this sequence and report its P3_MyD88 Rank (before): KNLFNELVSKNIVPL
3755

Quickly give me recorded P3_MyD88 Rank (before) for NQWRNALIAAVNLSGC
3485

Query P3_MyD88 Rank (before) for SDLRVVDDGSVSPLAM
3005

Item RTLFENLWESVYNISQ : provide P3_MyD88 Rank (before)
2633

# return recorded P3_MyD88 Rank (before) for entry DSQSSLLKGEADLVGQ
2071

Tell me its P3_MyD88 Rank (before) given YTALTNSGCHTFRVND as the entry.
1657

For NELVHVWSSKANIRVC , write its P3_MyD88 Rank (before).
3399
